test: Solubility in PBS; type: physicochemical; conditions: Solubility (uM)
READOUT: Solubility (µM)
Number in µM, nothing else.

Previously resolved entries follow.
[[record]]
molecule = "CC(=O)N1CCC[C@]12CC=CCCCC1(CCCC=CCCCOC(=O)N3CC[C@@](C(=O)N[C@@H](Cc4ccccc4Cl)C(=O)N[C@@H](Cc4csc5ccccc45)C(=O)N[C@@H](CO)C(N)=O)(C3)NC(=O)[C@H]([C@@H](C)O)NC(=O)[C@H](Cc3ccccc3)NC(=O)[C@H](C)NC(=O)[C@H](C)NC(=O)[C@H](CC(=O)O)NC(=O)[C@H](CC(=O)O)NC1=O)NC(=O)[C@H](CC1CCCCC1)NC(=O)[C@H](CC(=O)O)NC2=O (stereo partly drawn)"
readout = "Solubility"
scale_unit = "µM"
measurement = 42

[[record]]
molecule = "CC(=O)N1CCC[C@]12CC=CCCCC1(CCCC=CCCCCCC[C@@](C)(C(=O)N[C@@H](CCc3ccccc3)C(=O)N[C@@H](Cc3c[nH]c4ccccc34)C(=O)N[C@@H](CCC(N)=O)C(N)=O)NC(=O)[C@H](C(C)C)NC(=O)[C@H](Cc3ccccc3)NC(=O)[C@H](C)NC(=O)[C@H](C)NC(=O)[C@H](CC(=O)O)NC(=O)[C@H](CC(=O)O)NC1=O)NC(=O)[C@H](C)NC(=O)[C@H](CC(=O)O)NC2=O (stereo partly drawn)"
readout = "Solubility"
scale_unit = "µM"
measurement = 47

[[record]]
molecule = "COc1ccccc1C[C@H](NC(=O)[C@]12CCN(C1)C(=O)OCCCC=CCCCC1(CCCC=CC[C@]3(CCCN3C(C)=O)C(=O)N[C@@H](CC(=O)O)C(=O)N[C@@H](CC3CCCCC3)C(=O)N1)C(=O)N[C@@H](CC(=O)O)C(=O)N[C@@H](CC(=O)O)C(=O)N[C@@H](C)C(=O)N[C@@H](C)C(=O)N[C@@H](Cc1ccccc1)C(=O)N[C@@H](CO)C(=O)N2)C(=O)N[C@@H](Cc1csc2ccccc12)C(=O)N[C@@H](CO)C(N)=O (stereo partly drawn)"
readout = "Solubility"
scale_unit = "µM"
measurement = 48

[[record]]
molecule = "CC[C@H](NC(=O)[C@H](Cc1csc2ccccc12)NC(=O)[C@H](Cc1ccccc1)NC(=O)[C@]1(C)CCCCCCC=CCCCC2(CCCC=CC[C@]3(CCCN3C(C)=O)C(=O)N[C@@H](CC(=O)O)C(=O)N[C@@H](C)C(=O)N2)C(=O)N[C@@H](CC(=O)O)C(=O)N[C@@H](CCC(=O)O)C(=O)N[C@@H](C)C(=O)N[C@@H](C)C(=O)N[C@@H](Cc2ccccc2)C(=O)N[C@@H](CCC(N)=O)C(=O)N1)C(N)=O (stereo partly drawn)"
readout = "Solubility"
scale_unit = "µM"
measurement = 41

[[record]]
molecule = "CC(=O)N1CCC[C@]12CC=CCCCC1(CCCC=CCCCOC(=O)N3CC[C@@](C(=O)N[C@@H](Cc4ccccc4Cl)C(=O)N[C@@H](Cc4csc5ccccc45)C(=O)N[C@@H](C(N)=O)[C@H](C)O)(C3)NC(=O)[C@H](CC(N)=O)NC(=O)[C@H](Cc3ccccc3)NC(=O)[C@H](C)NC(=O)[C@H](C)NC(=O)[C@H](CC(=O)O)NC(=O)[C@H](CC(=O)O)NC1=O)NC(=O)[C@H](CC(C)(C)C)NC(=O)[C@H](CCC(=O)O)NC2=O (stereo partly drawn)"
readout = "Solubility"
scale_unit = "µM"
measurement = 49

[[record]]
molecule = "CC(=O)N1CCC[C@]12CC=CCCCC1(CCCC=CCCCOC(=O)N3CC[C@@](C(=O)N[C@@H](Cc4ccsc4)C(=O)N[C@@H](Cc4csc5ccccc45)C(=O)N[C@@H](CCC(N)=O)C(=O)N[C@@H](CCCCNC(=O)c4ccc(CN5CCOCC5)cc4)C(N)=O)(C3)NC(=O)[C@H](CC(N)=O)NC(=O)[C@H](Cc3ccccc3)NC(=O)[C@H](C)NC(=O)[C@H](C)NC(=O)[C@H](CC(=O)O)NC(=O)[C@H](CC(=O)O)NC1=O)NC(=O)[C@H](CC(C)(C)C)NC(=O)[C@H](CC(=O)O)NC2=O (stereo partly drawn)"
readout = "Solubility"
scale_unit = "µM"
measurement = 44

[[record]]
molecule = "CCCCCCCC(=O)NCCCC[C@@H]1NC(=O)[C@H](C)NC(=O)[C@H](CC(=O)O)NC(=O)[C@H](CC(=O)O)NC(=O)C2(CCCC=CCCCOC(=O)N3CC[C@@](C(=O)N[C@@H](Cc4ccsc4)C(=O)N[C@@H](Cc4csc5ccccc45)C(=O)N[C@@H](CCC(N)=O)C(N)=O)(C3)NC(=O)[C@H](CC(N)=O)NC(=O)[C@H](Cc3ccccc3)NC1=O)CCCC=CC[C@]1(CCCN1C(C)=O)C(=O)N[C@@H](CC(=O)O)C(=O)N[C@@H](CC(C)(C)C)C(=O)N2 (stereo partly drawn)"
readout = "Solubility"
scale_unit = "µM"
measurement = 42

[[record]]
molecule = "CC(=O)N1CCC[C@]12CC=CCCCC1(CCCC=CCCCOC(=O)N3CC[C@@](C(=O)N[C@@H](Cc4ccccc4F)C(=O)N[C@@H](Cc4csc5ccccc45)C(=O)N[C@@H](CO)C(N)=O)(C3)NC(=O)[C@H]([C@@H](C)O)NC(=O)[C@H](Cc3ccccc3)NC(=O)[C@H](C)NC(=O)[C@H](C)NC(=O)[C@H](CC(=O)O)NC(=O)[C@H](CC(=O)O)NC1=O)NC(=O)[C@H](CC(C)(C)C)NC(=O)[C@H](CC(=O)O)NC2=O (stereo partly drawn)"
readout = "Solubility"
scale_unit = "µM"
measurement = 46


# input for lookup
Value lookup for Solubility; key = CCCCCCCC(=O)N1CCC[C@]12CC=CCCCC1(CCCC=CCCCOC(=O)N3CC[C@@](C(=O)N[C@@H](Cc4ccccc4Cl)C(=O)N[C@@H](Cc4csc5ccccc45)C(=O)N[C@@H](C(N)=O)[C@H](C)O)(C3)NC(=O)[C@H](CC(N)=O)NC(=O)[C@H](Cc3ccccc3)NC(=O)[C@H](C)NC(=O)[C@H](C)NC(=O)[C@H](CC(=O)O)NC(=O)[C@H](CC(=O)O)NC1=O)NC(=O)[C@H](CC(C)(C)C)NC(=O)[C@H](CC(=O)O)NC2=O (stereo partly drawn)
44

---

Catalogue of Solubility values
Test: Solubility in PBS
Type: physicochemical
Details: Solubility (uM)
Experimental: After ultracentrifugation of the PBS solution, the supernatant was analyzed by HPLC and compared to an HPLC injection 50 μM peptide DMSO solution. Solubility was determined by: [(Area of PBS peak)/(Area of DMSO peak)]*50 uM.
Number in µM, nothing else.

[[record]]
molecule = "CCCCCCCC(=O)NCCCC[C@H](NC(=O)[C@H](CCC(N)=O)NC(=O)[C@H](Cc1csc2ccccc12)NC(=O)[C@H](Cc1ccsc1)NC(=O)[C@]12CCN(C1)C(=O)OCCCC=CCCCC1(CCCC=CC[C@]3(CCCN3C(C)=O)C(=O)N[C@@H](CC(=O)O)C(=O)N[C@@H](CC(C)(C)C)C(=O)N1)C(=O)N[C@@H](CC(=O)O)C(=O)N[C@@H](CC(=O)O)C(=O)N[C@@H](C)C(=O)N[C@@H](C)C(=O)N[C@@H](Cc1ccccc1)C(=O)N[C@@H](CC(N)=O)C(=O)N2)C(N)=O (some centres unmarked)"
measurement = 44

[[record]]
molecule = "CC(=O)N1CCC[C@]12CC=CCCCC1(CCCC=CCCCCCC[C@@](C)(C(=O)N[C@@H](Cc3ccccc3)C(=O)N[C@@H](Cc3csc4ccccc34)C(=O)N[C@@H](CCC(N)=O)C(=O)N[C@H](C)C(N)=O)NC(=O)[C@H](CC(N)=O)NC(=O)[C@H](Cc3ccccc3)NC(=O)[C@H](C)NC(=O)[C@H](C)NC(=O)[C@H](CCC(=O)O)NC(=O)[C@H](CC(=O)O)NC1=O)NC(=O)[C@H](CC(C)C)NC(=O)[C@H](CC(=O)O)NC2=O (some centres unmarked)"
measurement = 48


Value lookup for Solubility; key = CC(=O)N1CCC[C@]12CC=CCCCC1(CCCC=CCCCOC(=O)N3CC[C@@](C(=O)N[C@@H](Cc4ccccc4Cl)C(=O)N[C@@H](Cc4csc5ccccc45)C(=O)N[C@@H](CCC(N)=O)C(N)=O)(C3)NC(=O)[C@H](CC(N)=O)NC(=O)[C@H](Cc3ccccc3)NC(=O)[C@H](C)NC(=O)[C@H](CCCCNC(C)C)NC(=O)[C@H](CC(=O)O)NC(=O)[C@H](CC(=O)O)NC1=O)NC(=O)[C@H](CC(C)(C)C)NC(=O)[C@H](CC(=O)O)NC2=O (some centres unmarked)
39

Value lookup for Solubility; key = CC(=O)N1CCC[C@]12CC=CCCCC1(CCCC=CCCCOC(=O)N3CC[C@@](C(=O)N[C@@H](Cc4ccccc4)C(=O)N[C@@H](Cc4csc5ccccc45)C(=O)N[C@@H](CCC(N)=O)C(N)=O)(C3)NC(=O)[C@H](CC(C)C)NC(=O)[C@H](Cc3ccc(C(F)(F)F)cc3)NC(=O)[C@H](C)NC(=O)[C@H](C)NC(=O)[C@H](CC(=O)O)NC(=O)[C@H](CC(=O)O)NC1=O)NC(=O)[C@H](CC(C)(C)C)NC(=O)[C@H](CC(=O)O)NC2=O (some centres unmarked)
29

Value lookup for Solubility; key = CC(=O)N1CCC[C@]12CC=CCCCC1(CCCC=CCCCOC(=O)N3CC[C@@](C(=O)N[C@@H](Cc4ccsc4)C(=O)N[C@@H](Cc4csc5ccccc45)C(=O)N[C@@H](CC(N)=O)C(=O)N[C@@H](C)C(N)=O)(C3)NC(=O)[C@H](CC(N)=O)NC(=O)[C@H](Cc3ccccc3)NC(=O)[C@H](C)NC(=O)[C@H](C)NC(=O)[C@H](CC(=O)O)NC(=O)[C@H](CC(=O)O)NC1=O)NC(=O)[C@H](CC(C)(C)C)NC(=O)[C@H](CC(=O)O)NC2=O (some centres unmarked)
36
